Assay: Biodistribution of 177Lu-labeled αMSH analogues in mice bearing SK-MEL-1 human melanoma
Settings: male, NRG (NOD.Cg-Rag1tm1Mom Il2rgtm1Wjl/SzJ), mouse, tumour/blood, total radioactivity, 120 h p.i., NRG mice, SK-MEL-1 melanoma

compound	tissue to tissue ratio at 120 h
CCCC[C@H](NC(=O)CN1CCC(NC(=O)[C@H](CCCCNC(=O)CN2CCN(CC(=O)O)CCN(CC(=O)O)CCN(CC(=O)O)CC2)NC(=O)[C@H](CCC(=O)O)NC(=O)CCCc2ccc(I)cc2)CC1)C(=O)N[C@H]1CC(=O)NCCCC[C@@H](C(N)=O)N(C)C(=O)[C@H](Cc2c[nH]c3ccccc23)NC(=O)[C@H](CCCNC(=N)N)N(C)C(=O)[C@@H](Cc2ccccc2)NC(=O)[C@H](Cc2c[nH]cn2)NC1=O [^177Lu-labeled CCZ01118, metal not drawn]	246

----------
Assay: Biodistribution of 177Lu-labeled αMSH analogues in mice bearing B16F10 mouse melanoma
Type: in vivo, C57BL/6J mice
Details: male, mouse, testes, iv, total radioactivity; 4 h p.i., C57BL/6J mice, B16F10 melanoma; read-out: Biodistribution, Testes
recorded-metric: tissue uptake at 4 h (%ID/g)

molecule	value-unit	test-result
CCCC[C@H](NC(=O)CN1CCC(NC(=O)[C@H](CCCCNC(=O)CN2CCN(CC(=O)O)CCN(CC(=O)O)CCN(CC(=O)O)CC2)NC(=O)[C@H](CCC(=O)O)NC(=O)CCCc2ccc(I)cc2)CC1)C(=O)N[C@H]1CC(=O)NCCCC[C@@H](C(N)=O)N(C)C(=O)[C@H](Cc2c[nH]c3ccccc23)NC(=O)[C@H](CCCNC(=N)N)N(C)C(=O)[C@@H](Cc2ccccc2)NC(=O)[C@H](Cc2c[nH]cn2)NC1=O [^177Lu-labeled CCZ01118, metal not drawn]	%ID/g	0.4
CCCC[C@H](NC(=O)CN1CCC(NC(=O)CN2CCN(CC(=O)O)CCN(CC(=O)O)CCN(CC(=O)O)CC2)CC1)C(=O)N[C@H]1CC(=O)NCCCC[C@@H](C(N)=O)N(C)C(=O)[C@H](Cc2c[nH]c3ccccc23)N(C)C(=O)[C@H](CCCNC(=N)N)N(C)C(=O)[C@@H](Cc2ccccc2)NC(=O)[C@H](Cc2c[nH]cn2)N(C)C1=O [^177Lu-labeled CCZ01099, metal not drawn]	%ID/g	0.03
CCCC[C@H](NC(=O)CN1CCC(NC(=O)[C@H](CCCCNC(=O)CN2CCN(CC(=O)O)CCN(CC(=O)O)CCN(CC(=O)O)CC2)NC(=O)[C@H](CCC(=O)O)NC(=O)CCCc2ccc(I)cc2)CC1)C(=O)N[C@H]1CC(=O)NCCCC[C@@H](C(N)=O)N(C)C(=O)[C@H](Cc2c[nH]c3ccccc23)N(C)C(=O)[C@H](CCCNC(=N)N)N(C)C(=O)[C@@H](Cc2ccccc2)NC(=O)[C@H](Cc2c[nH]cn2)N(C)C1=O [^177Lu-labeled CCZ01088, metal not drawn]	%ID/g	0.33

----------
Experiment: Biodistribution of 68Ga-labeled peptide in mice bearing B16F10 mouse melanoma
Format: in vivo, C57BL/6J mice
Conditions: C57BL/6J, heart, iv, with BMS 470539 (MC1R-specific inhibitor), 0.5 mg co-injected, total radioactivity, 1 h p.i. blocked, co-injection of 0.5 mg BMS 470539, read-out: Biodistribution, Heart

compound	tissue uptake at 1 h
CCCC[C@H](NC(=O)CN1CCC(NC(=O)CN2CCN(CC(=O)O)CCN(CC(=O)O)CCN(CC(=O)O)CC2)CC1)C(=O)N[C@H]1CC(=O)NCCCC[C@@H](C(N)=O)N(C)C(=O)[C@H](Cc2c[nH]c3ccccc23)N(C)C(=O)[C@H](CCCNC(=N)N)N(C)C(=O)[C@@H](Cc2ccccc2)NC(=O)[C@H](Cc2c[nH]cn2)N(C)C1=O [^68Ga-labeled CCZ01099, metal not drawn]	0.13 %ID/g

----------
Assay: Biodistribution of 177Lu-labeled αMSH analogues in mice bearing B16F10 mouse melanoma
Type: in vivo, C57BL/6J mice
Details: mouse, kidneys, iv, total radioactivity; 24 h p.i., C57BL/6J mice, B16F10 melanoma; read-out: Biodistribution, Kidneys
recorded-metric: tissue uptake at 24 h (%ID/g)

compound	recorded-metric	test-result
CCCC[C@H](NC(=O)CN1CCC(NC(=O)[C@H](CCCCNC(=O)CN2CCN(CC(=O)O)CCN(CC(=O)O)CCN(CC(=O)O)CC2)NC(=O)[C@H](CCC(=O)O)NC(=O)CCCc2ccc(I)cc2)CC1)C(=O)N[C@H]1CC(=O)NCCCC[C@@H](C(N)=O)N(C)C(=O)[C@H](Cc2c[nH]c3ccccc23)NC(=O)[C@H](CCCNC(=N)N)N(C)C(=O)[C@@H](Cc2ccccc2)NC(=O)[C@H](Cc2c[nH]cn2)NC1=O [^177Lu-labeled CCZ01118, metal not drawn]	tissue uptake at 24 h	6.32

----------
Assay: Biodistribution of 177Lu-labeled αMSH analogues in mice bearing B16F10 mouse melanoma
Assay type: in vivo, C57BL/6J mice
Details: mouse, tumour/muscle, iv, total radioactivity; 1 h p.i., C57BL/6J mice, B16F10 melanoma; read-out: Tumour/muscle

compound	tissue to tissue ratio at 1 h
CCCC[C@H](NC(=O)CN1CCC(NC(=O)[C@H](CCCCNC(=O)CN2CCN(CC(=O)O)CCN(CC(=O)O)CCN(CC(=O)O)CC2)NC(=O)[C@H](CCC(=O)O)NC(=O)CCCc2ccc(I)cc2)CC1)C(=O)N[C@H]1CC(=O)NCCCC[C@@H](C(N)=O)N(C)C(=O)[C@H](Cc2c[nH]c3ccccc23)N(C)C(=O)[C@H](CCCNC(=N)N)N(C)C(=O)[C@@H](Cc2ccccc2)NC(=O)[C@H](Cc2c[nH]cn2)N(C)C1=O [^177Lu-labeled CCZ01088, metal not drawn]	13.8
CCCC[C@H](NC(=O)CN1CCC(NC(=O)CN2CCN(CC(=O)O)CCN(CC(=O)O)CCN(CC(=O)O)CC2)CC1)C(=O)N[C@H]1CC(=O)NCCCC[C@@H](C(N)=O)NC(=O)[C@H](Cc2c[nH]c3ccccc23)NC(=O)[C@H](CCCNC(=N)N)NC(=O)[C@@H](Cc2ccccc2)NC(=O)[C@H](Cc2c[nH]cn2)NC1=O [^177Lu-labeled CCZ01048, metal not drawn, reference compound]	126
CCCC[C@H](NC(=O)CN1CCC(NC(=O)[C@H](CCCCNC(=O)CN2CCN(CC(=O)O)CCN(CC(=O)O)CCN(CC(=O)O)CC2)NC(=O)[C@H](CCC(=O)O)NC(=O)CCCc2ccc(I)cc2)CC1)C(=O)N[C@H]1CC(=O)NCCCC[C@@H](C(N)=O)NC(=O)[C@H](Cc2c[nH]c3ccccc23)NC(=O)[C@H](CCCNC(=N)N)NC(=O)[C@@H](Cc2ccccc2)NC(=O)[C@H](Cc2c[nH]cn2)NC1=O [^177Lu-labeled CCZ01082, metal not drawn]	18.7
CCCC[C@H](NC(=O)CN1CCC(NC(=O)[C@H](CCCCNC(=O)CN2CCN(CC(=O)O)CCN(CC(=O)O)CCN(CC(=O)O)CC2)NC(=O)[C@H](CCC(=O)O)NC(=O)CCCc2ccc(I)cc2)CC1)C(=O)N[C@H]1CC(=O)NCCCC[C@@H](C(N)=O)N(C)C(=O)[C@H](Cc2c[nH]c3ccccc23)NC(=O)[C@H](CCCNC(=N)N)N(C)C(=O)[C@@H](Cc2ccccc2)NC(=O)[C@H](Cc2c[nH]cn2)NC1=O [^177Lu-labeled CCZ01118, metal not drawn]	32.9
CCCC[C@H](NC(=O)CN1CCC(NC(=O)CN2CCN(CC(=O)O)CCN(CC(=O)O)CCN(CC(=O)O)CC2)CC1)C(=O)N[C@H]1CC(=O)NCCCC[C@@H](C(N)=O)N(C)C(=O)[C@H](Cc2c[nH]c3ccccc23)NC(=O)[C@H](CCCNC(=N)N)N(C)C(=O)[C@@H](Cc2ccccc2)NC(=O)[C@H](Cc2c[nH]cn2)NC1=O [^177Lu-labeled CCZ01106, metal not drawn]	75

----------
Assay: Biodistribution of 177Lu-labeled αMSH analogues in mice bearing SK-MEL-1 human melanoma
Conditions: male, NRG (NOD.Cg-Rag1tm1Mom Il2rgtm1Wjl/SzJ), mouse, kidneys, total radioactivity
Below: a set of entries, each annotated with reported tissue uptake at 24 h.

compound	value-unit	tissue uptake at 24 h
CCCC[C@H](NC(=O)CN1CCC(NC(=O)[C@H](CCCCNC(=O)CN2CCN(CC(=O)O)CCN(CC(=O)O)CCN(CC(=O)O)CC2)NC(=O)[C@H](CCC(=O)O)NC(=O)CCCc2ccc(I)cc2)CC1)C(=O)N[C@H]1CC(=O)NCCCC[C@@H](C(N)=O)N(C)C(=O)[C@H](Cc2c[nH]c3ccccc23)NC(=O)[C@H](CCCNC(=N)N)N(C)C(=O)[C@@H](Cc2ccccc2)NC(=O)[C@H](Cc2c[nH]cn2)NC1=O [^177Lu-labeled CCZ01118, metal not drawn]	%ID/g	6.48
CCCC[C@H](NC(=O)CN1CCC(NC(=O)[C@H](CCCCNC(=O)CN2CCN(CC(=O)O)CCN(CC(=O)O)CCN(CC(=O)O)CC2)NC(=O)CNC(=O)CCCc2ccc(-c3ccc(C)cc3)cc2)CC1)C(=O)N[C@H]1CC(=O)NCCCC[C@@H](C(N)=O)N(C)C(=O)[C@H](Cc2c[nH]c3ccccc23)NC(=O)[C@H](CCCNC(=N)N)N(C)C(=O)[C@@H](Cc2ccccc2)NC(=O)[C@H](Cc2c[nH]cn2)NC1=O [^177Lu-labeled CCZ01158, metal not drawn]	%ID/g	8.29
CCCC[C@H](NC(=O)CN1CCC(NC(=O)[C@H](CCCCNC(=O)CN2CCN(CC(=O)O)CCN(CC(=O)O)CCN(CC(=O)O)CC2)NC(=O)CNC(=O)CCCc2ccc(I)cc2)CC1)C(=O)N[C@H]1CC(=O)NCCCC[C@@H](C(N)=O)N(C)C(=O)[C@H](Cc2c[nH]c3ccccc23)NC(=O)[C@H](CCCNC(=N)N)N(C)C(=O)[C@@H](Cc2ccccc2)NC(=O)[C@H](Cc2c[nH]cn2)NC1=O [^177Lu-labeled CCZ01148, metal not drawn]	%ID/g	9.72
